assay: in vitro; details: both, human, brain homogenate
For each of the compounds below, state its fraction unbound.

{"columns": ["Compound", "Property name", "Result"],
 "data": [
  ["CO[C@H]1C[C@H](O[C@H]2CC[C@@]3(C)[C@H](CC[C@@H]4[C@@H]3CC[C@]3(C)[C@@H](C5=CC(=O)OC5)[C@@H](OC(C)=O)C[C@]43O)C2)O[C@@H](C)[C@@H]1O [oleandrin, reference compound]", "fraction unbound", 0.316]
]}

**Query** Consider the compound COC1CC(OC2CCC3(C)C(CCC4C3CCC3(C)C(C5=CC(=O)OC5)C(OC(C)=O)CC43O)C2)OC(C)C1=O (centres unmarked) [KDC203, 4′-dehydro-oleandrin] . State its measured fraction unbound.
**Result** 0.395

====

test: in vitro; conditions: guinea pig, brain homogenate
Property name: fraction unbound
One number for each entry.

{"columns": ["Compound", "fraction unbound"],
 "data": [
  ["CO[C@H]1C[C@H](O[C@H]2CC[C@@]3(C)[C@H](CC[C@@H]4[C@@H]3CC[C@]3(C)[C@@H](C5=CC(=O)OC5)[C@@H](OC(C)=O)C[C@]43O)C2)O[C@@H](C)[C@@H]1O [oleandrin, reference compound]", 0.219]
]}

--- query ---
**Query** Consider the compound COC1CC(OC2CCC3(C)C(CCC4C3CCC3(C)C(C5=CC(=O)OC5)C(OC(C)=O)CC43O)C2)OC(C)C1=O (centres unmarked) [KDC203, 4′-dehydro-oleandrin] . State its measured fraction unbound.
**Result** 0.294

====

For each of the compounds below, state its fraction unbound.
assay: in vitro; conditions: Atp1a1^S/S (gene-edited), mouse, brain homogenate
Answers are plain numbers.

{"columns": ["Compound", "fraction unbound"],
 "data": [
  ["CO[C@H]1C[C@H](O[C@H]2CC[C@@]3(C)[C@H](CC[C@@H]4[C@@H]3CC[C@]3(C)[C@@H](C5=CC(=O)OC5)[C@@H](OC(C)=O)C[C@]43O)C2)O[C@@H](C)[C@@H]1O [oleandrin, reference compound]", 0.24]
]}

**Query** Consider the compound COC1CC(OC2CCC3(C)C(CCC4C3CCC3(C)C(C5=CC(=O)OC5)C(OC(C)=O)CC43O)C2)OC(C)C1=O (centres unmarked) [KDC203, 4′-dehydro-oleandrin] . State its measured fraction unbound.
**Result** 0.33

====

For each of the compounds below, state its Kp uu.
assay: in vivo; details: Atp1a1^S/S (gene-edited), mouse
One number for each entry.

{"columns": ["Compound", "Kp uu"],
 "data": [
  ["CO[C@H]1C[C@H](O[C@H]2CC[C@@]3(C)[C@H](CC[C@@H]4[C@@H]3CC[C@]3(C)[C@@H](C5=CC(=O)OC5)[C@@H](OC(C)=O)C[C@]43O)C2)O[C@@H](C)[C@@H]1O [oleandrin, reference compound]", 0.27]
]}

--- query ---
**Query** Consider the compound COC1CC(OC2CCC3(C)C(CCC4C3CCC3(C)C(C5=CC(=O)OC5)C(OC(C)=O)CC43O)C2)OC(C)C1=O (centres unmarked) [KDC203, 4′-dehydro-oleandrin] . State its measured Kp uu.
**Result** 0.44
